FYI, the data here is from PubChem BioAssay (NCI).

For each entry below, report its GI50 value.
System: IGROV1 ovarian
Assay: NCI tumour cell line growth inhibition, 48 h

// recorded GI50 for `CCS(=O)(=O)c1ccc(OC)c(Nc2ncc(-c3cccc(F)c3)o2)c1` : > 25000 nM

Record `Oc1[nH]c2ccccc2c1C=Nc1ccc(-n2cncn2)cc1` , field GI50: > 25000 nM

The reported value for `CN(C)c1ccc2[nH]c3c(C(N)=O)cc(=O)c(=O)c=3oc2c1` in terms of GI50 is 1950 nM

GI50 in this record for `O=C1C(Cl)=C(NCCCN(CCCNC2=C(Cl)C(=O)c3ccccc3C2=O)C2=C(Cl)C(=O)c3ccccc3C2=O)C(=O)c2ccccc21` : 1760 nM

Form: compound = `Cc1cc(N2CCOCC2)nc(NCc2cc(Nc3ccnc4cc(Cl)ccc34)ccc2F)n1` ; GI50 = 1640 nM

The compound `CC/C=C\C[C@H]1C/C=C2/C(=O)C(Cl)=C[C@@H]2C/C=C\CCCC(=O)O1` showed GI50 equal to 605 nM

The reported GI50 of the compound `COc1ccc2c3/c(=C\c4ccc(N(C)C)cc4)c4ccccc4n3[n+](C)c2c1` was 240 nM

Summary for this compound, `CCC(=O)Nc1nnc(Cc2ccc(OC)c(OC)c2)s1` : GI50 is > 100000 nM

Entry `O=C1/C(=C/c2ccc([N+](=O)[O-])o2)Oc2ccc(Cl)cc21` ; GI50 = 1920 nM

Just so you know, measured GI50 for `O=C(CI)Nc1ccc(Br)cc1` came out at 2350 nM

GI50 measured on `O=C(Oc1c(Cl)cc(Cl)cc1Cl)c1ccccc1Nc1ccnc(C(F)(F)F)c1` = > 100000 nM

# GI50 of CC(C)(C)[Si](C)(C)OC1[C@@H](COC(=O)NC(=O)CCl)O[C@@H](n2cnc3c(N)ncnc32)[C@H]1O[Si](C)(C)C(C)(C)C (some centres not stated) = 783 nM

Data point: `C=C(C)C(=O)Nc1ccc(-c2c(-c3ccc(Oc4nccc(C)n4)c(F)c3)c3c(N)ncnc3n2C)cc1` ; GI50 = 3100 nM

Lab note: CSc1nc2c(c(=O)n1C)C(c1ccccc1)C1=C(N2)/C(=C/c2ccccc2)CCC1 (configuration not stated) gave GI50 of 13600 nM

The recorded GI50 for `N#Cc1c(N)nc(N2CCOCC2)c(C#N)c1-c1c(Cl)cccc1Cl` is 1980 nM

For reference, reported GI50 for `O=C1/C(=C/c2ccc(C(F)(F)F)cc2)COc2ccc(O)c(O)c21` stands at 476 nM

Entry `Cc1c(C(N)=O)sc2nc(C)n(/N=c3\scc(-c4ccccc4)n3Cc3ccccc3)c(=O)c12` — recorded GI50 = 1430 nM

Measured GI50 of CC1=C(C(=O)Nc2ccc(Cl)c(Cl)c2)C(c2cccc(Cl)c2)NC(=S)N1 (configuration not stated) : 8830 nM

# GI50 (compound: `COc1cnccc1Nc1nc(-c2nn(Cc3c(F)cc(OCCO)cc3F)c3ccccc23)ncc1OC` ) is 2890 nM

Input `CC(=O)[CH-]C(=O)c1ccccc1.CC(=O)[CH-]C(=O)c1ccccc1.CC(=O)[CH-]C(=O)c1ccccc1.[Ga+3]` . Output GI50: 18600 nM

Per the record, `O=C(C(=CN1CCN(C(=O)c2ccco2)C1=S)C(=O)c1ccccc1)c1ccccc1` has GI50 of 5580 nM

`COc1ccc([I+]c2ccc(OC)cc2)cc1` has a reported GI50 of 15700 nM
